# test-target: UniProt:Q9H228
# Sequence (Q9H228 whole entry): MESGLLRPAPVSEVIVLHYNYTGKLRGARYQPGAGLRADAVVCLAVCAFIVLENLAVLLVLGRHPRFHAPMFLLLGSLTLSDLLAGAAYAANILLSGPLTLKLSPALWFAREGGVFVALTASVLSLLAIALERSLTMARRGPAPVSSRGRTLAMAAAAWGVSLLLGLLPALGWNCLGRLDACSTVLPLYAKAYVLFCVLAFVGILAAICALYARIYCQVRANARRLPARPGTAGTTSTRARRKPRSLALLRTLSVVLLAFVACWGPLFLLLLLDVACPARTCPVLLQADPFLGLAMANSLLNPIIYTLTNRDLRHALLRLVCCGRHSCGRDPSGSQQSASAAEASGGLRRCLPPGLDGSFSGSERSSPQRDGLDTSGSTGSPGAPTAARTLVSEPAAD
# measurement-description: In Vitro Binding Assay: I. Master Stock SolutionUnless specified otherwise, the sample compounds were diluted in 100% anhydrous DMSO including all dilutions. The compounds were tested as the citrate salt (1 equivalent per molecule). If the sample compound is provided in a different solvent all master stock dilutions are performed in the specified solvent. All control wells contained identical solvent final concentrations as the sample compound wells.II. Compound Plate AssayThe sample compounds were transferred from a master stock solution into a daughter plate that was used in the assay. Each sample compound was diluted into an assay buffer (1×HBSS with 20 mM HEPES, 2.5 mM Probenecid, and 0.4% Free Fatty Acid BSA) at an appropriate concentration to obtain final specified concentrations.III. Antagonist Assay FormatUsing the EC80 values that were determined real-time, stimulated all pre-incubated sample compounds and reference antagonists (if applicable) were compared with the EC80 values of reference agonist. These were read for 180 seconds using the […] (This assay added reference agonist to respective wells-then fluorescences measurements were collected to calculate IC50 values).
pIC50: −log10 of the molar value.
readout-label: pIC50

smiles	reported
C=CCN(NC(=O)Nc1cc(Cl)nc(Cl)c1)c1cc(C(C)C)c2c(C)nn(C)c2n1	6.96
Cc1nn(C)c2nc(N(CCCO)NC(=O)Nc3cc(Cl)nc(Cl)c3)cc(C(C)C)c12	7.92
